All figures here come from ChEMBL document CHEMBL3425497.

experiment_description: Half life in male Sprague-Dawley rat at 0.25 mg/kg, iv
Format: ADME, organism-based
Design: dose 0.25 mg/kg, route intravenous
study_conditions: in vivo

[
  {
    "smiles_representation": "COc1cc(NC(=O)CCN2CCC(OC(=O)Nc3ccccc3-c3ccccc3)CC2)c(Cl)cc1CNC[C@H](O)c1ccc(O)c2[nH]c(=O)ccc12",
    "half-life": "10.8 min"
  }
]

---

target_or_system: CYP3A4 (Homo sapiens)
Sequence (P08684 whole entry): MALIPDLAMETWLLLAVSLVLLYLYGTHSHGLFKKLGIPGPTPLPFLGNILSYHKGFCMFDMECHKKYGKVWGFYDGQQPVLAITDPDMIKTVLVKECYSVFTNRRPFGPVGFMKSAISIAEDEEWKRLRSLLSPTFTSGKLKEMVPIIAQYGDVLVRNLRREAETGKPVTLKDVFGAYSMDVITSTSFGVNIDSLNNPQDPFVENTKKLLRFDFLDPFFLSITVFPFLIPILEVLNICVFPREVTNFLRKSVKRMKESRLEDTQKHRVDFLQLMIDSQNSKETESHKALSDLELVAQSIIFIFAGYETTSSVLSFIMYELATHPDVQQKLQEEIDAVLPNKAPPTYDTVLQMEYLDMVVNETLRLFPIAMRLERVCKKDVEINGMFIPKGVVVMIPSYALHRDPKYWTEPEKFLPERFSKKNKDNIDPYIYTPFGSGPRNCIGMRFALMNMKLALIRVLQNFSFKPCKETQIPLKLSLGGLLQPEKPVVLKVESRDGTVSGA
experiment_description: Inhibition of CYP3A4 (unknown origin) at 600 nM
Type: ADME

[
  {
    "smiles_representation": "COc1cc(NC(=O)CCN2CCC(OC(=O)Nc3ccccc3-c3ccccc3)CC2)c(Cl)cc1CNC[C@H](O)c1ccc(O)c2[nH]c(=O)ccc12",
    "target_or_system": "CYP3A4 (Homo sapiens)",
    "inhibition at 0.6 µM": "< 20%"
  }
]
